# key: entry, value: z-score
Target: Homeobox protein Hox-A13 (Mus musculus)
Test: inhibitors of HoxA13-DNA binding, primary screen, biochemical, fluorescence polarization, labeled oligonucleotide (AID 1185)
Details: 15 min, higher = more signal, called active from +8 up or from −8 down
Answer field: number only, no words.

Here's what some known entries look like.
# COMPOUND, REPORTED_MEASUREMENT
data = [
    ("C=C[C@H](OC)[C@@H](OC(=O)Nc1ccc(SC)cc1)c1ccc(O)c(F)c1", -2.14),
    ("COc1ccc(-c2ccccc2[C@@H]2N[C@H](C(=O)O)CC[C@H]2C)cc1", 1.08),
    ("O=C(NCc1ccccc1)c1ccc(Br)cc1[N+](=O)[O-]", 0.513),
    ("COc1cc2c(cc1OC)CN(C(=O)[C@H]1[C@@H]3C(=O)O[C@@H](c4ccccc4)[C@@H](c4ccccc4)N3[C@@H](c3ccc(O)cc3)[C@]13C(=O)Nc1ccc(C#CC4(O)CCCCCC4)cc13)CC2", -1.42),
    ("O=C1c2ccccc2[C@@]2(Cc3ccccc3N(CC(F)(F)F)C2=O)[C@H](c2ccc(CO)cc2)N1C1CCCCC1", 0.601),
    ("C=CCNC(=O)[C@H]1[C@@H]2C(=O)O[C@@H](c3ccccc3)[C@@H](c3ccccc3)N2[C@@H](c2ccccc2OCCO)[C@]12C(=O)N(C(=O)OCCOC)c1ccc(C#CCNC(N)=O)cc12", -1.33),
]

Continue with the next compound.
Data request: For the compound C=CCC(OC(C)=O)[C@@H]1[C@@H](N(Cc2ccc(-c3ccccc3)cc2)C(=O)c2ccc(-c3ccccc3)cc2)c2cc(OCCCO)ccc2N1C(=O)Cc1ccc(OC)cc1 (some centres not stated) , what z-score is on record?
Data returned: -1.31

====

Assay: MM1S cell viability effects, profiling panel, calcein-AM fluorescence, 48 h, basal (AID 1165);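 also: viability of MM1S multiple myeloma cells under basal unstimulated conditions; test concentration not given here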
Details: higher = more signal
ENDPOINT: z-score
Answer field: number only, no words.

Here's what some known entries look like.
# COMPOUND, z-score
records = [
    ("CC(C)NC(=O)[C@@]1(Cc2ccccc2I)c2ccccc2C(=O)N(C2CCCCC2)[C@H]1c1ccc(CO)cc1", -0.533),
    ("CCCC=C(CCC)[C@@H](NS(=O)(=O)c1cccc(C(F)(F)F)c1)c1ccc(C(=O)OC)cc1", -0.008),
    ("CCOC(=O)C[C@H]1[C@H](OC(=O)Cc2ccc3c(c2)OCO3)[C@@H](NC(=O)c2ccc3ccccc3c2)c2cc(OCCCO)ccc2N1C(=O)Cc1ccc(OC)cc1", 0.956),
    ("CO[C@H]1COC(=O)CC=C[C@@H](C)COC(=O)[C@@H](C)NC(=O)CC=C[C@@H]1C", 0.344),
    ("O=C1c2ccccc2[C@@]2(Cc3ccccc3N(CC(F)(F)F)C2=O)[C@H](c2ccc(CO)cc2)N1C1CCCCC1", 0.129),
]

Data request: For the compound "C=C[C@H](OC)[C@@H](OC(=O)Nc1ccc(SC)cc1)c1ccc(O)c(F)c1" , what z-score is on record?
Data returned: -0.913

Data request: For the compound COC(=O)C1=CC(c2ccc(CO)cc2)=CC(c2cccs2)N(Cc2cccc(OC(F)(F)F)c2)C=C1C(=O)OC (stereo not drawn) , what z-score is on record?
Data returned: -1.63
